The values you see were collected from patent US20250163167A1.

I'd appreciate it if you could supply Abs 630 (100 nM) values for the items below.
Target: T1, human IL-10 receptor (hIL-10R alpha and beta chains) on HEK-Blue IL-10 reporter cells (human, UniProt Q13651 22-578; Q08334 20-325)
T1 sequence 1: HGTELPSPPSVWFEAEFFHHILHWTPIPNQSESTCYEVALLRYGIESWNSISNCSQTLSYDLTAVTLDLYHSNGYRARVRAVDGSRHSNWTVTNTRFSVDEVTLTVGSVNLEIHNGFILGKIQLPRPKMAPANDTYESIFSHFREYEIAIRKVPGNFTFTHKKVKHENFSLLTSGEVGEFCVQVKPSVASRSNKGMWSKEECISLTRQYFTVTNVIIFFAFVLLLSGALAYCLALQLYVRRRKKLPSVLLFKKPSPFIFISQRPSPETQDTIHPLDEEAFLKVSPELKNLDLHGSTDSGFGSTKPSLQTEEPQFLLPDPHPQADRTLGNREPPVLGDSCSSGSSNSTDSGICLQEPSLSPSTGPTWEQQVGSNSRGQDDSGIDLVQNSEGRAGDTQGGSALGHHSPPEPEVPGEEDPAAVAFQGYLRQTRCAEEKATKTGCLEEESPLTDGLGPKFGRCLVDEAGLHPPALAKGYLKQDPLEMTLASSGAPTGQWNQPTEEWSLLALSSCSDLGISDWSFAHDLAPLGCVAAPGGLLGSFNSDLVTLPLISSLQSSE
T1 sequence 2: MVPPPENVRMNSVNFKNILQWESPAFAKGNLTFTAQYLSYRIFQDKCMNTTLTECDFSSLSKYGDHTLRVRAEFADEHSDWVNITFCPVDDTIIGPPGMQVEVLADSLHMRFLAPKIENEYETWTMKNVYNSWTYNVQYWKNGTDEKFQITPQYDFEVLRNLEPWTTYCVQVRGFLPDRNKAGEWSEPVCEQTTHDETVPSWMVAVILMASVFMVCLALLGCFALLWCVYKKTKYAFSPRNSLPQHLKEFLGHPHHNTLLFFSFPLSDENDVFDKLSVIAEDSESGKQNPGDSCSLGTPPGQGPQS
Assay: cell-based or functional assay
The reply should be a number in Abs 630, with the unit left off.

Complete the entry with Abs 630 (100 nM) for IL10R binding molecule of SEQ ID NO: 350 (bispecific antibody) QVQLQESGGGSVQTGGSLRLSCAASGYTYLRGCMGWFRQAPGKEREGVAVMDVVGDRRSYIDSVKGRFTISRDNAANSVYLQMDNLKPEDTAMYYCTAGPNCVGWRSGLDYWGQGTQVTVSSGGGSQVQLQESGGGSVQAGGSLRLSCAVSGYAYSTYCMGWFRQAPGKEREGVAAIDSGGSTSYADSVKGRFTISKDNAKNTLYLRMNSLKPEDTAMYYCAAVPPPPDGGSCLFLGPEIKVSKADFRYWGQGTQVTVSSASHHHHHH 0.35

Please indicate Abs 630 (100 nM) recorded for IL10R binding molecule of SEQ ID NO: 348 (bispecific antibody) QVQLQESGGGSVQTGGSLRLSCAASGYTYLRGCMGWFRQAPGKEREGVAVMDVVGDRRSYIDSVKGRFTISRDNAANSVYLQMDNLKPEDTAMYYCTAGPNCVGWRSGLDYWGQGTQVTVSSGGGSQVQLQESGGGSVQAGGSLRLSCAASRFTYSSYCMGWFRQAPGKEREGVASIDSDGSTSYTDSVKGRFTISKDNAKNTLYLQMNSLKPEDTAMYYCALDLMSTVVPGFCGFLLSAGMDYWGKGTQVTVSSASHHHHHH 0.36
